System: KRAS patient-derived spheroids with HUVEC/MSC, viability
Test: Anticancer human tumor 323965-272-R-J2-PDC patient-derived pancreatic carcinoma cell line growth inhibition [KRAS2]
Conditions: second compound 0.316 µM; first compound 0.0316 µM; stronger effect = lower value
# strict inequality: viability, T/C < 50% yields fulfilled, everything else yields not fulfilled

Field: example entries. Status: answers known.
* CCNC(=O)CC1N=C(c2ccc(Cl)cc2)c2cc(OC)ccc2-n2c(C)nnc21 (stereo unspecified) + COc1cc2nc(C)nc(NC(C)c3cc(N)cc(C(F)(F)F)c3)c2cc1OC1CCOC1 | not fulfilled
* Cn1nccc1Nc1nccc(-c2cc3c(s2)C(C)(C)N(CCN2CCOCC2)C3=O)n1 + CC1OCC2(CCN(c3cnc(Sc4ccnc(N)c4Cl)c(N)n3)CC2)C1N | not fulfilled
* COc1cc2nccc(Oc3ccc(NC(=O)C4(C(=O)Nc5ccc(F)cc5)CC4)cc3)c2cc1OC + CC1OCC2(CCN(c3cnc(Sc4ccnc(N)c4Cl)c(N)n3)CC2)C1N | not fulfilled

Query: Please determine if CC1COCCN1c1cc(-c2ccnn2C)c2ccnc(-c3ccn[nH]3)c2n1 (stereo unspecified) + CNCc1ccccc1-c1csc(C(C)Nc2nc(C)nc3cc(OC)c(OC)cc23)c1 is below 50% in terms of viability, T/C.
Response: fulfilled

Query: Please determine if CC(=O)Nc1cccc(-n2c(=O)n(C3CC3)c(=O)c3c(Nc4ccc(I)cc4F)n(C)c(=O)c(C)c32)c1 + C=CC(=O)N1CCN(c2nc(OCC3CCCN3C)nc3c2CCN(c2cccc4cccc(C)c24)C3)CC1CC#N is below 50% in terms of viability, T/C.
Response: fulfilled

* * *

Tested on: KRAS patient-derived spheroids with HUVEC/MSC, viability
Assay: Anticancer human tumor 323965-272-R-J2-PDC cell line growth inhibition [KRAS2];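 note: spheroids exposed to agents for 7 days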
Details: curve of first compound; second compound 0.316 µM
pIC50: −log10 of the molar value.
experimentalEndpoint: pIC50

Example compounds with recorded pIC50:
- COc1cc2nccc(Oc3ccc(NC(=O)C4(C(=O)Nc5ccc(F)cc5)CC4)cc3)c2cc1OC + COc1cc2nc(C)nc(NC(C)c3cc(N)cc(C(F)(F)F)c3)c2cc1OC1CCOC1: < 5.00
- CC1COCCN1c1cc(-c2ccnn2C)c2ccnc(-c3ccn[nH]3)c2n1 (stereo not drawn) + C=CC(=O)N1CCN(c2nc(=O)n(-c3c(C)ccnc3C(C)C)c3nc(-c4c(O)cccc4F)c(F)cc23)C(C)C1: > 8.00

Query: Find pIC50 (KRAS patient-derived spheroids with HUVEC/MSC, viability) for the entry COc1cc(Nc2ncc3c(n2)-c2ccc(Cl)cc2C(c2c(F)cccc2OC)=NC3)ccc1C(=O)O + CC1OCC2(CCN(c3cnc(Sc4ccnc(N)c4Cl)c(N)n3)CC2)C1N
Response: > 7.50

* * *

Tested on: KRAS patient-derived spheroids with HUVEC/MSC, viability
Test: Anticancer human tumor 323965-272-R-J2-PDC cell line growth inhibition [KRAS2];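 note: spheroids exposed to agents for 7 days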;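 for viability, T/C: 100% = DMSO vehicle control viability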
Conditions: second compound 1 µM; first compound 0.0316 µM; stronger effect = lower value
What viability, T/C was measured for each of the following?
Give bare numbers, in %.

Example molecules with recorded viability, T/C:
* O=C(c1cc(Cc2n[nH]c(=O)c3ccccc23)ccc1F)N1CCN(C(=O)C2CC2)CC1 + COc1cc2nc(C)nc(NC(C)c3cc(N)cc(C(F)(F)F)c3)c2cc1OC1CCOC1 | 102
* CC(=O)OC12COC1CC(O)C1(C)C(=O)C(O)C3=C(C)C(OC(=O)C(O)C(NC(=O)OC(C)(C)C)c4ccccc4)CC(O)(C(OC(=O)c4ccccc4)C21)C3(C)C (centres undefined) + CC1OCC2(CCN(c3cnc(Sc4ccnc(N)c4Cl)c(N)n3)CC2)C1N | 33.5
* Cn1nccc1Nc1nccc(-c2cc3c(s2)C(C)(C)N(CCN2CCOCC2)C3=O)n1 + C=CC(=O)N1CCN(c2nc(OCC3CCCN3C)nc3c2CCN(c2cccc4cccc(C)c24)C3)CC1CC#N | 45.5

Now turn to the next molecule.
Query: For the molecule shown here, O=C(c1cc(Cc2n[nH]c(=O)c3ccccc23)ccc1F)N1CCN(C(=O)C2CC2)CC1 + CNCc1ccccc1-c1csc(C(C)Nc2nc(C)nc3cc(OC)c(OC)cc23)c1 , give the reported viability, T/C.
Response: 92

* * *

Tested on: KRAS patient-derived spheroids with HUVEC/MSC, viability
Assay: Anticancer human tumor 323965-272-R-J2-PDC cell line growth inhibition [KRAS2];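 note: spheroids exposed to agents for 7 days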
Details: curve of first compound; second compound 0.316 µM
experimentalEndpoint: IC50

Example molecules with recorded IC50:
• COC(=O)c1ccc2c(C(=Nc3ccc(N(C)C(=O)CN4CCN(C)CC4)cc3)c3ccccc3)c(O)[nH]c2c1 + COc1cc2nc(C)nc(NC(C)c3cc(N)cc(C(F)(F)F)c3)c2cc1OC1CCOC1 = > 10000 nM
• CN(C)C/C=C/C(=O)Nc1cc2c(Nc3ccc(F)c(Cl)c3)ncnc2cc1O[C@H]1CCOC1 + CNCc1ccccc1-c1csc(C(C)Nc2nc(C)nc3cc(OC)c(OC)cc23)c1 = > 100 nM

Now turn to the next molecule.
Query: For the molecule shown here, CC(=O)OC12COC1CC(O)C1(C)C(=O)C(O)C3=C(C)C(OC(=O)C(O)C(NC(=O)OC(C)(C)C)c4ccccc4)CC(O)(C(OC(=O)c4ccccc4)C21)C3(C)C (stereo not drawn) + C=CC(=O)N1CCN(c2nc(OCC3CCCN3C)nc3c2CCN(c2cccc4cccc(C)c24)C3)CC1CC#N , give the reported IC50.
Response: < 10 nM

* * *

Tested on: KRAS patient-derived spheroids with HUVEC/MSC, viability
Assay: Anticancer human tumor 323965-272-R-J2-PDC cell line growth inhibition [KRAS2]; active = viability on the fitted dose curve at most 10% of control; inactive = the rest;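 note: spheroids exposed to agents for 7 days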
Conditions: second compound 1 µM; first compound 3.16 µM
Field 'call' accepts 1 = active, -1 = inactive

• CC(=O)OC12COC1CC(O)C1(C)C(=O)C(O)C3=C(C)C(OC(=O)C(O)C(NC(=O)OC(C)(C)C)c4ccccc4)CC(O)(C(OC(=O)c4ccccc4)C21)C3(C)C (stereo unspecified) + C=CC(=O)N1CCN(c2nc(=O)n(-c3c(C)ccnc3C(C)C)c3nc(-c4c(O)cccc4F)c(F)cc23)C(C)C1 = -1
• CC1COCCN1c1cc(-c2ccnn2C)c2ccnc(-c3ccn[nH]3)c2n1 (stereo unspecified) + CC1OCC2(CCN(c3cnc(Sc4ccnc(N)c4Cl)c(N)n3)CC2)C1N = 1
• COC(=O)c1ccc2c(C(=Nc3ccc(N(C)C(=O)CN4CCN(C)CC4)cc3)c3ccccc3)c(O)[nH]c2c1 + C=CC(=O)N1CCN(c2nc(=O)n(-c3c(C)ccnc3C(C)C)c3nc(-c4c(O)cccc4F)c(F)cc23)C(C)C1 = -1
• CC1(C)CCC(CN2CCN(c3ccc(C(=O)NS(=O)(=O)c4ccc(NCC5CCOCC5)c([N+](=O)[O-])c4)c(Oc4cnc5[nH]ccc5c4)c3)CC2)=C(c2ccc(Cl)cc2)C1 + COc1cc2nc(C)nc(NC(C)c3cc(N)cc(C(F)(F)F)c3)c2cc1OC1CCOC1 = -1
• CC1OCC2(CCN(c3cnc(Sc4ccnc(N)c4Cl)c(N)n3)CC2)C1N (stereo unspecified) + COc1cc2nc(C)nc(NC(C)c3cc(N)cc(C(F)(F)F)c3)c2cc1OC1CCOC1 = -1

# ---- query molecule ----
Query: Which outcome was assigned to CCNC(=O)CC1N=C(c2ccc(Cl)cc2)c2cc(OC)ccc2-n2c(C)nnc21 (stereo unspecified) + CNCc1ccccc1-c1csc(C(C)Nc2nc(C)nc3cc(OC)c(OC)cc23)c1 in this test?
Response: -1

* * *

System: KRAS patient-derived spheroids with HUVEC/MSC, viability
Test: Anticancer human tumor 323965-272-R-J2-PDC cell line growth inhibition [KRAS2];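 note: spheroids exposed to agents for 7 days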;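 for viability, T/C: 100% = DMSO vehicle control viability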
Details: second compound 1 µM; first compound 0.1 µM; stronger effect = lower value
What viability, T/C was measured for each of the following?
Give bare numbers, in %.

Example compounds with recorded viability, T/C:
* COc1cc(Nc2ncc3c(n2)-c2ccc(Cl)cc2C(c2c(F)cccc2OC)=NC3)ccc1C(=O)O + CC1OCC2(CCN(c3cnc(Sc4ccnc(N)c4Cl)c(N)n3)CC2)C1N | 26.6
* CC(=O)OC12COC1CC(O)C1(C)C(=O)C(O)C3=C(C)C(OC(=O)C(O)C(NC(=O)OC(C)(C)C)c4ccccc4)CC(O)(C(OC(=O)c4ccccc4)C21)C3(C)C (configuration not stated) + CNCc1ccccc1-c1csc(C(C)Nc2nc(C)nc3cc(OC)c(OC)cc23)c1 | 28.4
* CC1(C)CCC(CN2CCN(c3ccc(C(=O)NS(=O)(=O)c4ccc(NCC5CCOCC5)c([N+](=O)[O-])c4)c(Oc4cnc5[nH]ccc5c4)c3)CC2)=C(c2ccc(Cl)cc2)C1 + COc1cc2nc(C)nc(NC(C)c3cc(N)cc(C(F)(F)F)c3)c2cc1OC1CCOC1 | 84.2

List the reported viability, T/C of each compound below.
1. COc1cc(Nc2ncc3c(n2)-c2ccc(Cl)cc2C(c2c(F)cccc2OC)=NC3)ccc1C(=O)O + C=CC(=O)N1CCN(c2nc(OCC3CCCN3C)nc3c2CCN(c2cccc4cccc(C)c24)C3)CC1CC#N
2. COC(=O)c1ccc2c(C(=Nc3ccc(N(C)C(=O)CN4CCN(C)CC4)cc3)c3ccccc3)c(O)[nH]c2c1 + C=CC(=O)N1CCN(c2nc(=O)n(-c3c(C)ccnc3C(C)C)c3nc(-c4c(O)cccc4F)c(F)cc23)C(C)C1

Response:
1. 32.6
2. 57.6

List the reported viability, T/C of each compound below.
1. CC1OCC2(CCN(c3cnc(Sc4ccnc(N)c4Cl)c(N)n3)CC2)C1N (configuration not stated) + C=CC(=O)N1CCN(c2nc(OCC3CCCN3C)nc3c2CCN(c2cccc4cccc(C)c24)C3)CC1CC#N
2. COc1cc2nccc(Oc3ccc(NC(=O)C4(C(=O)Nc5ccc(F)cc5)CC4)cc3)c2cc1OC + C=CC(=O)N1CCN(c2nc(=O)n(-c3c(C)ccnc3C(C)C)c3nc(-c4c(O)cccc4F)c(F)cc23)C(C)C1

Response:
28.9
52.3
